Let's look at some binders and their measured pIC50.
- Experimental Target: HLA-B*15:01 (human)
- Experiment Summary: radioligand competition, purified MHC
Scale explanation: pIC50 corresponds to minus log10 of a concentration expressed in moles per litre.

Before answering, review these 5 worked examples.
> print(dat)
                                     binder  recorded.number
1  KAFQLTPIAV (modifications not checked) [… (SEQ ID NO: 13)]             5.92
2  ELPDEFVVVTV (modifications not checked) [… (SEQ ID NO: 8)]             4.45
3  QLTPTWRVY (modifications not checked) [… (SEQ ID NO: 38)]             7.96
4  DEFVVVTV (modifications not checked) [DEFVVVTV (SEQ ID NO: 11)]             5.69
5  KNIDGYFKIY (modifications not checked) [… (SEQ ID NO: 36)]             5.84

Query: // lookup pIC50 for YLNSTNVTI (modifications not checked) [… (SEQ ID NO: 24)]
Reply: 8.92

Query: pIC50 for FASEAARVV (modifications not checked) [… (SEQ ID NO: 17)] ?
Reply: 5.59

Query: Can you look up the measured pIC50 of SEFSSLPSY (modifications not checked) [… (SEQ ID NO: 27)] for me?
Reply: 8.16

Query: Please look up its pIC50: FAVDAAKAY (modifications not checked) [… (SEQ ID NO: 28)]
Reply: 8.57

Query: Request the reported pIC50 associated with SLEDKAFQL (modifications not checked) [… (SEQ ID NO: 7)]
Reply: 5.80

Query: Which pIC50 is listed for MLLGSMLYM (modifications not checked) [… (SEQ ID NO: 4)] ?
Reply: 8.96

Query: Need pIC50, item STSAFVETV (modifications not checked) [… (SEQ ID NO: 19)]
Reply: 4.98

Query: I have this binder here, LATNNLVVM (modifications not checked) [… (SEQ ID NO: 16)] , and I need its recorded pIC50.
Reply: 6.50
